- target: T1, DND1 RRM12 K197A (human, UniProt Q8IYX4 12-235, K197A)
- T1 sequence: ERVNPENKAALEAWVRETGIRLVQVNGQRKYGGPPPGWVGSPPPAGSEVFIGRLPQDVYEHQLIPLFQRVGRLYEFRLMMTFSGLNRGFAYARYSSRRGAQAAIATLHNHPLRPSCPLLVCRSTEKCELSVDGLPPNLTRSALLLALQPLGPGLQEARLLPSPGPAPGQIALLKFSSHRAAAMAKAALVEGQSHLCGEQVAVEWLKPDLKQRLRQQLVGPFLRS
- method-summary: ITC; N = 0.98; ITC: 100 mM potassium phosphate pH 6.6, 1 mM 2-mercaptoethanol, 25 C; NMR: 100 mM potassium phosphate pH 6.6, 1 mM DTT, 298 K (or 20 mM MES pH 6.6, 100 mM NaCl); Supplementary Fig. 3: 25 mM NaCl, 2 mM DTT, pH 6.3, 303 K
- condition-label: protein: recombinant; tags: N-terminal 6xHis, TEV-cleaved; label: selective 13C-ribose in some structure samples; unlabeled in titrations
readout-name: pKd
Remember the convention: pKd equals -log10 of concentration in molar.

q: Item CUUAUUUG (ssRNA) has what recorded pKd?
a: 5.59

Values from paper PMC9537309
